- System: Caov-3 cell line
- test-method-notes: Cytotoxicity in human Caov3 cells assessed as reduction in cell viability incubated for 48 hrs by MTT assay
- Type: functional, cell-based
- test-parameters: Caov-3, 48 h
Provide the reported IC50 of each item.
Answers are plain numbers, in µM.

Worked examples follow.
O=C(NC(Nc1ncnc2c1cnn2C(NC(=O)OCCc1ccccn1)C(Cl)(Cl)Cl)C(Cl)(Cl)Cl)OCCc1ccccn1 (configuration not stated); 146
Cc1ncc([N+](=O)[O-])n1CCOC(=O)NC(n1cnc2c(N(C)C)ncnc21)C(Cl)(Cl)Cl (configuration not stated); 264
Cc1ncc([N+](=O)[O-])n1CCOC(=O)NC(Nc1c(Cl)nc(N)nc1Cl)C(Cl)(Cl)Cl (configuration not stated); 110
Nc1nc(Cl)nc2c1ncn2C(NC(=O)OCc1ccccc1)C(Cl)(Cl)Cl (configuration not stated); 65
Cc1ncc([N+](=O)[O-])n1CCOC(=O)NC(n1cnc2c(N)nc(Cl)nc21)C(Cl)(Cl)Cl (configuration not stated); 144
Cc1ncc([N+](=O)[O-])n1CCOC(=O)NC(n1cnc2c(Cl)nc(Cl)nc21)C(Cl)(Cl)Cl (configuration not stated); 224

Please turn your attention to the following entry.
Record request: IC50 value, item Nc1ncnc2c1cnn2C(NC(=O)OCCN1CCOCC1)C(Cl)(Cl)Cl (configuration not stated)
1

The reported measurements were obtained from ChEMBL document CHEMBL4402600.
